Measured Time, listed per entry.
Tested on: Rattus norvegicus
Experiment: Antithrombin activity in rat at 1 mg/kg, iv after 60 mins measured as ecarin clotting time prolongation
Type: functional
Kindly provide the numeric value in s only, without the unit symbol.

Entry under review: N=C(N)c1csc(CNC(=O)[C@@H]2C=CCN2C(=O)[C@@H](CC2CCCCC2)NCC(=O)O)c1Cl . Reported Time?
76

Fill in the blank: the reported Time of Cc1cc(CNC(=O)[C@@H]2C=CCN2C(=O)[C@@H](CC2CCCCC2)NCC(=O)O)sc1C(=N)N is ____.
64

Which Time is listed for N=C(N)c1csc(CNC(=O)[C@@H]2C=CCN2C(=O)[C@@H](CC2CCCCC2)NCC(=O)O)n1 ?
280

Requested field: Time. Item: N=C(N)c1csc(CNC(=O)[C@@H]2C=CCN2C(=O)[C@@H](CC2CCCCC2)NCC(=O)O)c1
411

Using the record for N=C(N)c1ccc(CNC(=O)[C@@H]2C=CCN2C(=O)[C@@H](CC2CCCCC2)NCC(=O)O)o1 , report its Time.
74

* * *

System: Rattus norvegicus
Assay: Antithrombin activity in rat at 1 mg/kg, iv after 60 mins measured as ecarin clotting time prolongation
Format: functional
value.type: Time (s)
Write it as a number; the unit s goes unstated.

Examples with answers:
N=C(N)c1cnc(CNC(=O)[C@@H]2C=CCN2C(=O)[C@@H](CC2CCCCC2)NCC(=O)O)s1; 83
Cn1cc(CNC(=O)[C@@H]2C=CCN2C(=O)[C@@H](CC2CCCCC2)NCC(=O)O)cc1C(=N)N; 101
N=C(N)c1ccc(CNC(=O)[C@@H]2C=CCN2C(=O)[C@@H](CC2CCCCC2)NCC(=O)O)nc1; 104
N=C(N)c1noc(CNC(=O)[C@@H]2C=CCN2C(=O)[C@@H](CC2CCCCC2)NCC(=O)O)n1; 33
N=C(N)c1ccc(CNC(=O)[C@@H]2C=CCN2C(=O)[C@@H](CC2CCCCC2)NCC(=O)O)s1; 301
N=C(N)c1sc(CNC(=O)[C@@H]2C=CCN2C(=O)[C@@H](CC2CCCCC2)NCC(=O)O)cc1Cl; 48

Fill in: Time of N=C(N)c1coc(CNC(=O)[C@@H]2C=CCN2C(=O)[C@@H](CC2CCCCC2)NCC(=O)O)c1 is ___
202

Find the recorded Time belonging to N=C(N)c1ccc(CNC(=O)[C@@H]2C=CCN2C(=O)[C@@H](CC2CCCCC2)NCC(=O)O)cc1 and report it.
108

* * *

For reference, pIC50 measured on UniProtKB P00734:
pIC50 is defined as minus the log10 of a concentration measured in mol/L.

Sample answers from the record:
Cc1sc(CNC(=O)[C@@H]2C=CCN2C(=O)[C@@H](CC2CCCCC2)NCC(=O)O)nc1C(=N)N; 5.56
N=C(N)c1coc(CNC(=O)[C@@H]2C=CCN2C(=O)[C@@H](CC2CCCCC2)NCC(=O)O)n1; 7.68
Cc1cc(CNC(=O)[C@@H]2C=CCN2C(=O)[C@@H](CC2CCCCC2)NCC(=O)O)sc1C(=N)N; 8.75
N=C(N)c1noc(CNC(=O)[C@@H]2C=CCN2C(=O)[C@@H](CC2CCCCC2)NCC(=O)O)n1; 5.86

Which pIC50 is reported with UniProtKB P00734 for this entry: N=C(N)c1csc(CNC(=O)[C@@H]2C=CCN2C(=O)[C@@H](CC2CCCCC2)NCC(=O)O)c1 ?
8.57

Item: N=C(N)c1cc(CNC(=O)[C@@H]2C=CCN2C(=O)[C@@H](CC2CCCCC2)NCC(=O)O)cs1 Test system: UniProtKB P00734 Read-out: pIC50 Value: ?
8.19

Item N=C(N)c1coc(CNC(=O)[C@@H]2C=CCN2C(=O)[C@@H](CC2CCCCC2)NCC(=O)O)c1 with UniProtKB P00734 - pIC50?
8.89

* * *

Test system: Rattus norvegicus
Experiment: Antithrombin activity in rat at 1 mg/kg, iv after 60 mins measured as ecarin clotting time prolongation
Assay type: functional
Assign Condition met to entries whose Time meets or exceeds 40 s; assign Condition not met to the rest.

Example entries begin here.
Cn1nc(CNC(=O)[C@@H]2C=CCN2C(=O)[C@@H](CC2CCCCC2)NCC(=O)O)cc1C(=N)N; Condition not met
Cc1c(C(=N)N)csc1CNC(=O)[C@@H]1C=CCN1C(=O)[C@@H](CC1CCCCC1)NCC(=O)O; Condition met
Cn1nc(C(=N)N)nc1CNC(=O)[C@@H]1C=CCN1C(=O)[C@@H](CC1CCCCC1)NCC(=O)O; Condition met

Is it the case that Cc1c(CNC(=O)[C@@H]2C=CCN2C(=O)[C@@H](CC2CCCCC2)NCC(=O)O)sc(C(=N)N)c1C has Time reaching or exceeding 40 s?
Condition not met

Given N=C(N)c1ccc(CNC(=O)[C@@H]2CCN2C(=O)[C@H](NCC(=O)O)C2CCCCC2)cc1 , state whether its Time is at least 40 s.
Condition met

Kindly determine if Time recorded for N=C(N)c1coc(CNC(=O)[C@@H]2C=CCN2C(=O)[C@@H](CC2CCCCC2)NCC(=O)O)n1 is above or exactly 40 s.
Condition met
